target: SARS-CoV-2 3CL protease (Severe acute respiratory syndrome coronavirus 2, UniProt P0DTD1); assay: biochemical; settings: IC50
Here, each record is paired with measured IC50 data.

# molecule, IC50
records = [
    ("Cc1nc2cc(Cl)c(Nc3nc(=O)n(Cc4ncn(C)n4)c(=O)n3Cc3cc(F)c(F)cc3F)cc2n1C [II-0019]", "< 100 nM"),
    ("Cn1cnc(Cn2c(=O)nc(Nc3cc4cn([C@H]5CC[C@H](N)CC5)nc4cc3Cl)n(Cc3cc(Cl)c(F)cc3F)c2=O)n1 [II-0531]", "< 100 nM"),
    ("CCNC(=O)Cn1cc2cc(Nc3nc(=O)n(Cc4ncn(C)n4)c(=O)n3Cc3cc(Cl)c(F)cc3F)c(Cl)cc2n1 [II-0151]", "< 100 nM"),
    ("Cc1nc2cc(Cl)c(Nc3nc(=O)n(Cc4ccc[nH]c4=O)c(=O)n3Cc3cc(F)c(F)c(C#N)c3)cc2n1C [Compound I-0010]", "< 100 nM"),
    ("NC(=O)c1cnc2[nH]c(=O)c(Cn3c(=O)nc(Nc4ccc5c(c4)CCO5)n(Cc4cc(F)c(F)c(F)c4)c3=O)cc2c1 [II-0317]", "< 100 nM"),
    ("COc1cnc(NC23CC(Nc4nc(=O)n(Cc5ccc[nH]c5=O)c(=O)n4Cc4cc(F)c(F)c(F)c4)(C2)C3)nc1 [II-0441]", "< 100 nM"),
    ("CCOc1c(F)cc(F)cc1Cn1c(Nc2cc3cn(C)nc3cc2Cl)nc(=O)n(Cc2ncn(C)n2)c1=O [II-0638]", "< 100 nM"),
    ("Cn1cnc(Cn2c(=O)nc(Nc3cc4cn(C)nc4cc3Cl)n(CC3CCCC3)c2=O)n1 [II-0605]", "1000 to 10000 nM"),
    ("CN(C)C(=O)c1cnc2[nH]c(=O)c(Cn3c(=O)nc(Nc4ccc5c(c4)CCO5)n(Cc4cc(F)c(F)c(F)c4)c3=O)cc2c1 [II-0315]", "< 100 nM"),
    ("COc1ccc(Nc2nc(=O)n(Cc3cc(-c4cccnc4)c[nH]c3=O)c(=O)n2Cc2cc(F)c(F)c(F)c2)cc1 [Compound I-0386]", "< 100 nM"),
    ("CC(=O)Nc1nc2ccc(Nc3nc(=O)n(Cc4ccc[nH]c4=O)c(=O)n3Cc3cc(F)c(F)c(F)c3)cc2s1 [Compound I-0458]", "< 100 nM"),
    ("N#Cc1cc(Cn2c(Nc3ccc4c(c3)CCO4)nc(=O)n(-c3cncc(CO)c3)c2=O)ccc1F [Compound I-0356]", "< 100 nM"),
    ("Cn1cnc(Cn2c(=O)nc(Nc3cc4cn(CC(=O)N5CCCCC5)nc4cc3Cl)n(Cc3cc(Cl)c(F)cc3F)c2=O)n1 [II-0134]", "< 100 nM"),
    ("COc1ccc(Nc2nc(=O)n(Cc3cc(C(=O)NCCN(C)C)c[nH]c3=O)c(=O)n2Cc2cc(F)c(F)c(F)c2)cc1 [Compound I-0092]", "< 100 nM"),
    ("COc1cc(N=S(C)(C)=O)ccc1Nc1nc(=O)n(-c2cncc(C)c2)c(=O)n1Cc1cc(Cl)ccc1C [II-0633]", "< 100 nM"),
    ("O=c1[nH]cccc1Cn1c(=O)nc(NC2CC(F)(F)C2)n(Cc2cc(F)c(F)c(F)c2)c1=O [II-0231]", "880 nM"),
    ("COc1ccc(Cc2nc(=O)n(Cc3ccc[nH]c3=O)c(=O)n2Cc2cc(F)c(F)c(F)c2)cc1 [II-0327]", "1500 nM"),
    ("Cc1nc2cc(Cl)c(Nc3nc(=O)n(Cc4ccc[nH]c4=O)c(=O)n3Cc3cc(F)c(F)c(F)c3)cn2n1 [Compound I-0442]", "< 100 nM"),
    ("Cn1cc2cc(Nc3nc(=O)n(Cc4cc5[nH]cnc5cn4)c(=O)n3Cc3cc(F)c(F)cc3F)c(Cl)cc2n1 [II-0256]", "160 nM"),
    ("CN1CC[C@H](n2cc3cc(Nc4nc(=O)n(Cc5ncn(C)n5)c(=O)n4Cc4cc(Cl)c(F)cc4F)c(Cl)cc3n2)C1=O [II-0447]", "< 100 nM"),
    ("Cc1cncc(-n2c(=O)nc(Nc3ccc(N=S(C)(C)=O)cc3Cl)n(Cc3cc(Cl)ccc3C)c2=O)c1 [II-0625]", "< 100 nM"),
    ("CNc1nc2cc(F)c(Nc3nc(=O)n(-c4cncc(C)c4)c(=O)n3Cc3cc(F)c(F)c(Cl)c3)cc2s1 [II-0293]", "< 100 nM"),
    ("Cn1cnc(Cn2c(=O)nc(Nc3cc4cn(CC(=O)N5CCCC5)nc4cc3Cl)n(Cc3cc(Cl)c(F)cc3F)c2=O)n1 [II-0138]", "< 100 nM"),
    ("Cn1cnc(Cn2c(=O)nc(Nc3cc4cn(C)nc4cc3Cl)n(Cc3cc(Cl)cc(F)c3Cl)c2=O)n1 [II-0640]", "< 100 nM"),
    ("CC(=O)Nc1nc2cc(Cl)c(Nc3nc(=O)n(Cc4ncn(C)n4)c(=O)n3Cc3cc(F)c(F)c(F)c3)cc2s1 [II-0310]", "< 100 nM"),
    ("COc1ccc(Nc2nc(=O)n(CC3(C)COC3)c(=O)n2Cc2cc(F)c(F)c(F)c2)cc1 [II-0274]", "3000 nM"),
    ("Cn1cnc(Cn2c(=O)nc(Nc3cc4cn(CC(=O)N5CCC5)nc4cc3Cl)n(Cc3cc(Cl)c(F)cc3F)c2=O)n1 [II-0149]", "< 100 nM"),
    ("COCCn1c(C)nc2cc(Cl)c(Nc3nc(=O)n(Cc4ccc[nH]c4=O)c(=O)n3Cc3cc(F)c(F)c(F)c3)cc21 [Compound I-0443]", "< 100 nM"),
]

###

Here, each record is paired with measured IC50 data.
molecular target: SARS-CoV-2 3CL protease (Severe acute respiratory syndrome coronavirus 2, UniProt P0DTD1); assay: biochemical; details: 50% SARS-CoV-2 3CL protease inhibitory concentration, given as class symbols; read-out: IC50

# compound, IC50
records = [
    ("C#Cc1cc(Cn2c(Nc3cc4cn(C)nc4cc3Cl)nc(=O)n(-c3cncc(C)c3)c2=O)ccc1F", "< 100 nM"),
    ("Cc1c2cc(Nc3nc(=O)n(Cc4ncn(C)n4)c(=O)n3Cc3cc(F)c(F)c(F)c3)c(Cl)cc2nn1C", "< 100 nM"),
    ("Cc1cncc(-n2c(=O)nc(Nc3cc4cn(C)nc4cc3Cl)n(Cc3cc(C#N)cnc3C)c2=O)c1", "< 100 nM"),
    ("CC(=O)Nc1nc2ccc(Nc3nc(=O)n(-c4cncc(C)c4)c(=O)n3Cc3ccc(F)c(C#N)c3)cc2s1", "< 100 nM"),
    ("Cn1cnc(Cn2c(=O)nc(Nc3cc4cn(CC5(N)CC5)nc4cc3Cl)n(Cc3cc(Cl)c(F)cc3F)c2=O)n1", "< 100 nM"),
    ("C[C@H](O)Cn1cc2cc(Nc3nc(=O)n(Cc4ccc[nH]c4=O)c(=O)n3Cc3cc(F)c(F)c(F)c3)c(Cl)cc2n1", "< 100 nM"),
    ("Cc1cncc(-n2c(=O)nc(Nc3ccc4ncccc4c3)n(Cc3ccc(F)c(C#N)c3)c2=O)c1", "< 100 nM"),
]

###

molecular target: SARS-CoV-2 3CL protease (Severe acute respiratory syndrome coronavirus 2); experiment: biochemical; conditions: IC50
Here, each record is paired with measured IC50 data.

# compound, IC50
rows = [
    ("Cn1cnc(Cn2c(=O)nc(Nc3cc4sc(NCC(F)F)nc4cc3Cl)n(Cc3ccc(F)c(C#N)c3)c2=O)n1", "< 100 nM"),
    ("CCc1nc2cc(Cl)c(Nc3nc(=O)n(Cc4ccc[nH]c4=O)c(=O)n3Cc3cc(F)c(F)c(F)c3)cc2n1C", "< 100 nM"),
    ("CC(=O)Nc1ccc(C#N)cc1Cn1c(Nc2cc3cn(C)nc3cc2Cl)nc(=O)n(-c2cncc(C)c2)c1=O", "270 nM"),
    ("CNC(=O)Cn1cc2cc(Nc3nc(=O)n(Cc4ncn(C)n4)c(=O)n3Cc3cc(F)c(F)c(Cl)c3)c(Cl)cc2n1", "< 100 nM"),
    ("COc1ncc(Nc2nc(=O)n(-c3cncc(C)c3)c(=O)n2Cc2ccc(F)c(C#N)c2)c(C)n1", "3300 nM"),
    ("Cn1cnc(Cn2c(=O)nc(Nc3cc4c(cc3Cl)nc3n4CCN3)n(Cc3cc(F)c(F)c(Cl)c3)c2=O)n1", "< 100 nM"),
    ("Cc1nc2cc(Cl)c(Nc3nc(=O)n(Cc4ccc[nH]c4=O)c(=O)n3Cc3cc(F)cc(Cl)c3)cc2n1C", "< 100 nM"),
]
